- System: EKVX NSCLC
- METHOD: NCI-60 one-dose screen, 48 h (100 = growth as untreated, 0 = no growth, -100 = all killed)
- EXPERIMENTAL_SETUP: 10 µM unless noted
Compounds without any hit were thinned out: in the full panel of roughly 83,000, 20% have a hit.
QUANTITY_KIND: growth (%)
Entry rule: numbers only, all in %.

Prompt: Value lookup for growth; key = COC(=O)CCC1=C(C)/C(=C/c2[nH]c(-c3ccc[nH]3)cc2OC)N=C1C
Completion: 46.4

Prompt: For Nc1nc(SCC2(CCl)COC2)c2[nH]cnc2n1 , what is its reported growth?
Completion: 107

Prompt: I would be grateful if you could share the reported growth for Cc1c(C(N)=O)sc2c1C(=O)N(Cc1ccccc1)C1=NN=C(c3ccc(Cl)cc3)CN12 .
Completion: 62.7

Prompt: What measured growth goes with COc1ccc2c(c1)nc(N)c1c3ccccc3cn21 ?
Completion: 72.7

Prompt: # lookup: growth of CC(C)[C@H]1CC[C@H]2[C@@H](CC[C@H]3[C@](C)(CN)CCC[C@]23C)C1
Completion: 68.5

----------
- Tested on: K-562 leukemia
- METHOD: NCI-60 one-dose screen, 48 h
- EXPERIMENTAL_SETUP: 10 µM unless noted
The panel holds about 83,000 compounds, 20% with a hit somewhere; the sample as a whole holds those more often. Activity calls are given as the source filed them. How the source made its calls: active means growth percent below 10; inactive means the rest.
Please reply with one of these outcomes: True (active), False (inactive)

# count of solved cases: 6
c1ccc2c(c1)[nH]c1c2cc[n+]2cc3c(cc12)CCCC3 | False
Cn1[nH]cc(/C=N/C(N)=O)c1=O | False
COc1ccccc1[C@H]1c2[nH]c3ccccc3c2C[C@H]2C(=O)N(CCCCCCC(=O)NO)CC(=O)N12 | False
O=C(Nc1ccc(Cl)cc1)c1cc2c(cc1O)[nH]c1ccccc12 | False
CC(C)C(=O)Cc1cnccn1 | False
C=CCOc1ccc2c(c1)CC[C@@H]1[C@@H]2CC[C@@]2(C)[C@H]1CC[C@]2(C)O | True

Now turn to the next compound.
Prompt: Dear colleague, could you share the recorded outcome for O=C1NCN(CCO)CN1 when you have a moment?
Completion: False

----------
- Test system: M14 melanoma
- METHOD: NCI-60 one-dose screen, 48 h (100 = growth as untreated, 0 = no growth, -100 = all killed)
- EXPERIMENTAL_SETUP: 10 µM unless noted
This is part of a sample that, as a whole, favours compounds with a hit. Of some 83,000 tested, about 20% had one in any assay.
Listed below: growth values for each entry.
Provide only the numeric value, understood in %.

Below, each entry is followed by its recorded growth result.
Cc1c(N(C)CS(=O)(=O)O)c(=O)n(-c2ccccc2)n1C | 103
C[N+]1(CCc2ccccc2)CCC(CCC2CC[N+](C)(CCc3ccccc3)CC2)CC1 (stereo not given) | 103
COc1ccc(C2=NNC(c3cc(Cc4ccc(O)c(C5CC(c6ccc(OC)cc6)=NN5)c4)ccc3O)C2)cc1 (stereo not given) | 59.3
CCC(C)CC(C)C(=O)c1c(O)ccn(OC)c1=O (stereo not given) | 71.1
CN1CCN(Cc2ccc(NC(=O)c3[nH]ncc3Nc3ccnc4ccnn34)cc2)CC1 | 57.1
Clc1ncn[nH]1 | 105
C/C(=N/N=C(N)N)c1ccc(Cl)cc1 | 86.9
Cc1cc(C)n(C(=O)c2nn(-c3ccc(Cl)cc3)cc2O)n1 | 45.7

Prompt: Look at this compound and give its reported growth. O=C(c1ccccc1)c1ccco1
Completion: 98.7

Prompt: Fill in: growth of Nc1ccccc1-c1ccc([N+](=O)[O-])cc1 is ___
Completion: 44.7

Prompt: Query: growth; subject: O=C(C(Br)Br)C(Br)C(Br)c1ccccc1 (stereo not given)
Completion: 81.5

Prompt: // lookup growth for C[N+]1(CCC[N+]2(C)C[C@@H]3[C@H](C2)[C@@H]2C=C[C@H]3C2)CCOCC1 (stereo not given in full)
Completion: 108

Prompt: Param item = C[n+]1ccc(Nc2ccc(NC(=O)c3ccc(Nc4cc[n+](C)c5ccc(N)cc45)cc3)cc2)cc1 ; retrieve measured growth.
Completion: 103

----------
Measured growth, listed per entry.
- Test system: NCI-H226 lung
- METHOD: NCI-60 one-dose screen, 48 h (100 = growth as untreated, 0 = no growth, -100 = all killed)
- EXPERIMENTAL_SETUP: 10 µM unless noted
This is part of a sample that, as a whole, favours compounds with a hit. Of some 83,000 tested, about 20% had one in any assay. Active and inactive are the calls of the source. Rule for the calls: active = growth percent below 10; inactive = the rest.

Example cases with answers are listed next.
COc1ccc(Nc2nccc(N3CCN(c4c5ccc(Cl)cc5nc5ccc(OC)cc45)CC3)n2)cc1 | 93.8% (inactive)
O=c1[nH]c(Cl)nc2c1cnn2-c1ccccc1 | 92.5% (inactive)

// next item, growth requested
Prompt: # lookup: growth of CC/C(=C\c1ccc(N(C)C)cc1)c1nc2ccccc2c(=O)[nH]1
Completion: 110% (inactive)

----------
- System: NCI-H23 lung
- METHOD: NCI-60 one-dose screen, 48 h (100 = growth as untreated, 0 = no growth, -100 = all killed)
- EXPERIMENTAL_SETUP: 10 µM unless noted
About 83,000 compounds went through this panel and 20% of them were active in at least one assay; those are over-represented in the sample as a whole.
Rule: growth below 90% gives satisfied, anything at or above gives not satisfied.

Before answering, review these 5 worked examples.
COc1ccc(-c2c(-c3cc(OC)c(OC)c(OC)c3)noc2N)cc1 | satisfied
CCSc1nnc2n(Cc3ccccc3)c(=O)c3c(C)c(C(N)=O)sc3n12 | not satisfied
NC(N)=N/N=C(/c1ccccc1)c1ccc(Cl)cc1 | satisfied
NS(=O)(=O)c1ccc(NC2=C(Cl)C(=O)c3ccccc3C2=O)cc1 | satisfied
O=C1OCCCCCCCCCC#Cc2ccccc21 | not satisfied

Prompt: Quick check: does CCCCCCOc1ccc(/C=N/NC(N)=S)cc1 have growth under 90%?
Completion: satisfied

Prompt: Lab note: growth threshold 90%. Does this compound come in strictly under it? c1coc([C@@H]2C[C@@H]3Cc4ccc5ccccc5c4N2O3)c1
Completion: not satisfied

Prompt: For this compound, is growth lower than 90%? CC(C)COCC(CN(Cc1ccccc1)c1ccccc1)N1CCCC1 (configuration not stated)
Completion: satisfied

Prompt: Criterion: growth strictly below 90%. Is it met by Nc1nonc1-c1nc2ccccc2n1CC(=O)Nc1ccc2c(c1)COC2=O ?
Completion: satisfied

Prompt: Consider COc1cccc(CCC2C(=O)CCCC2=O)c1 . Does its growth lie strictly below 90%?
Completion: not satisfied

----------
- System: CCRF-CEM leukemia
- METHOD: NCI-60 one-dose screen, 48 h (100 = growth as untreated, 0 = no growth, -100 = all killed)
- EXPERIMENTAL_SETUP: 10 µM unless noted
Compounds without any hit were thinned out: in the full panel of roughly 83,000, 20% have a hit. Active and inactive are the calls of the source. How the source made its calls: active means growth percent below 10; inactive means the rest.
QUANTITY_KIND: growth

Prompt: May I ask what growth has been recorded for CCN(CC)CCCCNc1c2ccccc2[n+](C)c2c1[nH]c1ccccc12 ?
Completion: -33.1% (active)

----------
- Tested on: DU-145 prostate
- METHOD: NCI-60 one-dose screen, 48 h (100 = growth as untreated, 0 = no growth, -100 = all killed)
- EXPERIMENTAL_SETUP: 10 µM unless noted
The panel holds about 83,000 compounds, 20% with a hit somewhere; the sample as a whole holds those more often.
QUANTITY_KIND: growth (%)
Report only the number, with the unit % understood.

CCCCCCCCSc1ncnc2c1ncn2CO | 90.9

Prompt: Need growth of CC(C)(C)c1cc(O)c(O)c(C(C)(C)C)c1 , thanks.
Completion: 68.7

Prompt: Give its growth value. Item: CN1COc2ccc3ccccc3c2C1
Completion: 107

----------
- System: SNB-19 CNS
- METHOD: NCI-60 one-dose screen, 48 h
- EXPERIMENTAL_SETUP: 10 µM unless noted
About 83,000 compounds went through this panel and 20% of them were active in at least one assay; those are over-represented in the sample as a whole. The source made the active and inactive calls. The calls were made as follows: active = growth percent below 10; inactive = the rest.
Form entry, call: pick from active, inactive

Prompt: Call for entry O=C(N1CCC(CN=c2cc3n(-c4ccc(Cl)cc4)c4ccccc4nc-3cc2Nc2ccc(Cl)cc2)CC1)N1CC1 :
Completion: active

Prompt: State the result this test recorded for CC1=NN(c2ccccc2Cl)C(=O)/C1=C\c1cn(S(=O)(=O)c2ccc(C)cc2)c2ccccc12 .
Completion: inactive

Prompt: Could you please tell me the result logged for COc1ccc(-c2nc3sccn3c2-c2ccnc(S(C)(=O)=O)n2)cc1 in this assay?
Completion: inactive

Prompt: # fetch the recorded call for C/C(=N/N=C(N)N)c1ccc(Cl)cc1 here
Completion: inactive

Prompt: For this molecule, state the assay outcome: COc1cc(/C=C2\COc3ccc(O)c(O)c3C2=O)cc(OC)c1
Completion: inactive

Prompt: GET /call?item= N#Cc1c2ccccc2c2n1-c1ccccc1OC(c1ccccc1)C2=O (configuration not stated) returns the recorded outcome of this test.
Completion: inactive

Prompt: Dear colleague, could you share the recorded outcome for Cc1c(C(N)=O)sc2c1C(=O)N(Cc1ccccc1)C1=NN=C(c3ccc(Cl)cc3)CN12 when you have a moment?
Completion: inactive

Prompt: Test call for this molecule, please: COc1ccc(-c2cc(Cc3cccs3)c(=O)n(Cn3ccc4ccccc43)n2)cc1
Completion: inactive

Prompt: Recorded test call requested for O=C1c2nsnc2C(=O)c2c(F)c(F)c(F)c(F)c21
Completion: active

Prompt: Record lookup: outcome of this test for CC(=O)Oc1ccc(C23c4ccccc4C2(OC(C)=O)c2cc(OC(C)=O)ccc23)cc1 (configuration not stated) ?
Completion: inactive

Prompt: What did the test return for CC/C(=C\c1ccc(N(C)C)cc1)c1ccncc1 ?
Completion: inactive

Prompt: Could you kindly confirm the outcome this assay logged for COc1cc(C2NC(c3ccc(Cl)cc3)C(C)C(=NC(=O)c3cnccn3)C2C)cc(OC)c1OC (configuration not stated) ?
Completion: inactive
